The reported numbers originate from patent US20160022751A1.

# Test system: ChAT
# measurement-description: ChAT mRNA expression in N2a cells (RT-PCR)
# Assay type: cell-based, mouse
# test-context: single ginsenoside (FIG. 7A)
value-kind: expression of ChAT mRNA

Record CC(C)=CCC[C@](C)(O)[C@H]1CC[C@]2(C)[C@@H]1[C@H](O)C[C@@H]1[C@@]3(C)CC[C@H](O[C@@H]4O[C@H](CO)[C@@H](O)[C@H](O)[C@H]4O[C@@H]4O[C@H](CO)[C@@H](O)[C@H](O)[C@H]4O)C(C)(C)[C@@H]3CC[C@]12C [ginsenoside Rg3] , field expression of ChAT mRNA: no significant increase

Record CC(C)=CCC[C@](C)(O[C@@H]1O[C@H](CO)[C@@H](O)[C@H](O)[C@H]1O)[C@H]1CC[C@]2(C)[C@@H]1[C@H](O)C[C@@H]1[C@@]3(C)CC[C@H](O[C@@H]4O[C@H](CO)[C@@H](O)[C@H](O)[C@H]4O[C@@H]4O[C@H](CO)[C@@H](O)[C@H](O)[C@H]4O)C(C)(C)[C@@H]3CC[C@]12C [ginsenoside Rd] , field expression of ChAT mRNA: significantly increased

Record CC(C)=CCC[C@](C)(O[C@@H]1O[C@H](CO)[C@@H](O)[C@H](O)[C@H]1O)[C@H]1CC[C@]2(C)[C@@H]1[C@H](O)C[C@@H]1[C@@]3(C)CC[C@H](O)C(C)(C)[C@@H]3[C@@H](O[C@@H]3O[C@H](CO)[C@@H](O)[C@H](O)[C@H]3O[C@@H]3O[C@@H](C)[C@H](O)[C@@H](O)[C@H]3O)C[C@]12C [ginsenoside Re] , field expression of ChAT mRNA: significantly increased

Record CC(C)=CCC[C@](C)(O[C@@H]1O[C@H](CO)[C@@H](O)[C@H](O)[C@H]1O)[C@H]1CC[C@]2(C)[C@@H]1[C@H](O)C[C@@H]1[C@@]3(C)CC[C@H](O)C(C)(C)[C@@H]3[C@@H](O[C@@H]3O[C@H](CO)[C@@H](O)[C@H](O)[C@H]3O)C[C@]12C [ginsenoside Rg1] , field expression of ChAT mRNA: no significant increase

More entries:
Record CC(C)=CCC[C@](C)(O[C@@H]1O[C@H](CO[C@@H]2O[C@H](CO)[C@@H](O)[C@H](O)[C@H]2O)[C@@H](O)[C@H](O)[C@H]1O)[C@H]1CC[C@]2(C)[C@@H]1[C@H](O)C[C@@H]1[C@@]3(C)CC[C@H](O[C@@H]4O[C@H](CO)[C@@H](O)[C@H](O)[C@H]4O[C@@H]4O[C@H](CO)[C@@H](O)[C@H](O)[C@H]4O)C(C)(C)[C@@H]3CC[C@]12C [ginsenoside Rb1] , field expression of ChAT mRNA: no significant increase
